All values here come from the supplement of paper PMC10567573.

B1: KIAA1161 (parent)
chain: FMPAMQFSIPPWRYDAEVVAIAQK

Variants of: B1
protocolDetails: protein stability index of a GFP-peptide fusion (GPS, HEK-293T) (PSI 1-6); higher = more stable;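 note: lentivirally expressed fusions sorted by FACS into six bins by GFP to DsRed ratio, PSI derived from sequencing read proportions per bin multiplied by bin number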
testSettings: c terminus: a fixed tail appended
experimentalReadout: protein stability index

   variantdescription  valuereported
0                 I9G           1.95
1                R13T           2.02
2                A16E           1.97
3                V18S           2.05
4                P11S           2.03
